Where do the numbers come from? From patent US7081460B2.

- Study System: GPIIb/IIIa (Homo sapiens, UniProt P05106+P08514)
- Sequence (P08514 32-887 limits assumed): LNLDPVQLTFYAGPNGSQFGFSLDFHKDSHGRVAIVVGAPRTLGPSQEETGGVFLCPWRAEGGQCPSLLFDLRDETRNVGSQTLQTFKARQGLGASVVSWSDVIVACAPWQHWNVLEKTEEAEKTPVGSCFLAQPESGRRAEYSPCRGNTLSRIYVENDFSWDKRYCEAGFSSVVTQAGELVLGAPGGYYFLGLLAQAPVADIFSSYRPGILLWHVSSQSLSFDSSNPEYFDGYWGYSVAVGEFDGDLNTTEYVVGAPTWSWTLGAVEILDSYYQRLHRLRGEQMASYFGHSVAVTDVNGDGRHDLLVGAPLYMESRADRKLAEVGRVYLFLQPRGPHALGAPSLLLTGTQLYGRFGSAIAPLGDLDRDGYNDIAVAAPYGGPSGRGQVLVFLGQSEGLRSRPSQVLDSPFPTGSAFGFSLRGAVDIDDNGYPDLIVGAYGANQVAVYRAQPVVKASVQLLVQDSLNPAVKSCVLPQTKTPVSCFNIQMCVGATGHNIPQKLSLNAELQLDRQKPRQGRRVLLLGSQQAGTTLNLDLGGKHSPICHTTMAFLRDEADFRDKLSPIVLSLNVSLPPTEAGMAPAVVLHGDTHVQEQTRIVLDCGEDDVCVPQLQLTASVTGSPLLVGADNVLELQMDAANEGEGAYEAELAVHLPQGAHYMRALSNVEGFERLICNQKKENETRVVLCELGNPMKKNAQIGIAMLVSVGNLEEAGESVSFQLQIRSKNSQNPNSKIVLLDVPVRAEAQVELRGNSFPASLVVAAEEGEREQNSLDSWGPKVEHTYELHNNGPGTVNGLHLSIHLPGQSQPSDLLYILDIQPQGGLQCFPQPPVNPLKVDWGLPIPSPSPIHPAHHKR
- Sequence (P08514 891-1039 partner limits assumed): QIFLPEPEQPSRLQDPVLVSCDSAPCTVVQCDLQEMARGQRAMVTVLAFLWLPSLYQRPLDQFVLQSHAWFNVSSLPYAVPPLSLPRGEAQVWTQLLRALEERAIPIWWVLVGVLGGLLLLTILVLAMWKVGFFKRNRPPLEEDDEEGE
- Sequence (P05106 27-788): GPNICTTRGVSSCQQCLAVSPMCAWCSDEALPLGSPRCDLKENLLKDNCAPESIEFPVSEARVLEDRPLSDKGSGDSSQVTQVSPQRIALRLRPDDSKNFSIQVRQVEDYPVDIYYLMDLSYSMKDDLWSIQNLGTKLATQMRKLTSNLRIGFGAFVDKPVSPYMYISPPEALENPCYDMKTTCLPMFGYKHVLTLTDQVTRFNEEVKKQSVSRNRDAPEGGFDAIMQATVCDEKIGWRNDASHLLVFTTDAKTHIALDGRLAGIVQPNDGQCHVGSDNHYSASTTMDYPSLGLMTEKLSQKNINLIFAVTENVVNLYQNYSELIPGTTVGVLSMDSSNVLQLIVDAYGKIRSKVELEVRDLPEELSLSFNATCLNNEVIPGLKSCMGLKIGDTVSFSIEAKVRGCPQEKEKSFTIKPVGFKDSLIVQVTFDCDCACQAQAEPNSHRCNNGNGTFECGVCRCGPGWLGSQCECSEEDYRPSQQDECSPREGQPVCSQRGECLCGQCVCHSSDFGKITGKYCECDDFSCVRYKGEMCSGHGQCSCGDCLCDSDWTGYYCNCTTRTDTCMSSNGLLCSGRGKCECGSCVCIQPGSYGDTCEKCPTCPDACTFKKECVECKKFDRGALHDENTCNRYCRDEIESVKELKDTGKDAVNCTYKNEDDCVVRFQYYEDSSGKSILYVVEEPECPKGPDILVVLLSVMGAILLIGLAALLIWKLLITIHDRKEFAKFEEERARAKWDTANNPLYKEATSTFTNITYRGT
- Test Protocol: In vitro solid phase purified glycoprotein IIb/IIIa binding assay (biotinylated fibrinogen)
- Assay Context: RGD-affinity purified GPIIb/IIIa, biotinylated fibrinogen; read-out: GPIIb/IIIa Binding IC50
Reported Property: IC50 (nM)
Answers are plain numbers, in nM.

                               smiles_input  test_value
0  Cc1c(C)c(C)c(S(=O)(=O)N[C@@H](Cc2nc3ccc(/C=C/CNC(=N)c4cccnc4)cc3c(=O)[nH]2)C(=O)O)c(C)c1C          96

Provide the reported IC50 of each entry below, same order.
1. O=C(Nc1ccccc1)N[C@@H](Cc1nc2ccc(/C=C/CNc3ccccn3)cc2c(=O)[nH]1)C(=O)O
2. O=C(O)[C@H](Cc1nc2ccc(/C=C/CNc3ccccn3)cc2c(=O)[nH]1)NS(=O)(=O)c1ccc(OC(F)(F)F)cc1

Ans:
18000
4800

Provide the reported IC50 of each entry below, same order.
1. COc1ccc(S(=O)(=O)N[C@@H](Cc2nc3ccc(/C=C/CNC(=O)NCc4ccccc4)cc3c(=O)[nH]2)C(=O)O)cc1OC
2. O=C(O)[C@H](Cc1nc2ccc(/C=C/CNC3=NCCN3)cc2c(=O)[nH]1)NS(=O)(=O)c1ccc(-c2ccccn2)s1
3. CN(C)c1cccc2c(S(=O)(=O)N[C@@H](Cc3nc4ccc(/C=C/CNC5=NCCN5)cc4c(=O)[nH]3)C(=O)O)cccc12
4. O=C(O)[C@H](Cc1nc2ccc(/C=C/CNc3ccccn3)cc2c(=O)[nH]1)NS(=O)(=O)c1cccs1

Ans:
1: 5000; 2: 41; 3: 1200; 4: 1600

Provide the reported IC50 of each entry below, same order.
1. Cc1ccc(NC/C=C/c2ccc3nc(C[C@H](NS(=O)(=O)c4c(C)c(C)c(C)c(C)c4C)C(=O)O)[nH]c(=O)c3c2)nc1
2. Cc1c(C)c(C)c(S(=O)(=O)N[C@@H](Cc2nc3ccc(/C=C/CNC(=O)NC4CCCCC4)cc3c(=O)[nH]2)C(=O)O)c(C)c1C

Ans:
1: 880; 2: 4900

Provide the reported IC50 of each entry below, same order.
1. O=C(N[C@@H](Cc1nc2ccc(/C=C/CCNC3=NCCN3)cc2c(=O)[nH]1)C(=O)O)OCc1ccccc1
2. Cc1c(C)c(C)c(S(=O)(=O)N[C@@H](Cc2nc3ccc(/C=C/CN4CCCC4=N)cc3c(=O)[nH]2)C(=O)O)c(C)c1C
3. Cc1c(C)c(C)c(S(=O)(=O)N[C@@H](Cc2nc3ccc(/C=C/CNc4ccc(Cl)cn4)cc3c(=O)[nH]2)C(=O)O)c(C)c1C
4. Cc1c(C)c(C)c(S(=O)(=O)N[C@H](CC(=O)O)c2nc3ccc(/C=C/CNc4ccccn4)cc3c(=O)[nH]2)c(C)c1C

Ans:
[580, 19, 1800, 1800]

Q: Report IC50 for COc1ccc(S(=O)(=O)N[C@@H](Cc2nc3ccc(/C=C/CNc4cc(C)ccn4)cc3c(=O)[nH]2)C(=O)O)cc1OC please.
Ans: 740
